Values compiled from patent US10231986B2.

Assay: Cytotoxicity evaluation, CellTiter-Blue Cell Viability Assay
Conditions: human, Zluc cells (HCV replicon cells)
Catalogue of CC50 at 72 h values
observation_type: CC50 at 72 h

compound="C[C@@]1(N)[C@H](O)[C@@H](CO)O[C@H]1n1ccc(=O)[nH]c1=O [Reference Compound 103, reference compound]" measured="> 50 µM"
compound="C[C@]1(N=[N+]=[N-])C(n2cnc3c(N)ncnc32)O[C@H](CO)[C@H]1O (stereo partly drawn) [Reference Compound 101, reference compound]" measured="> 50 µM"
compound="C[C@@]1(N=[N+]=[N-])[C@H](O)[C@@H](CO)O[C@H]1n1ccc(=O)[nH]c1=O [Reference Compound 102, reference compound]" measured="> 50 µM"
